The measurements presented in this section are drawn from paper PMC7537607.

Experiment: in vitro
Conditions: human, Cytotoxicity % Viability Exp - 2, 1 μg/mL, 48 h
value type: viability

> print(dat)
               structure.string  value.measured
1  OCCn1c(Cl)nc2cc(Br)c(Br)cc21           83.7%
